Test system: Albino mice
Test: mouse writhing test (acetic acid-induced), peripheral analgesic activity
Format: in vivo
Settings: test compound 20 mg/kg orally in DMSO; 30 min before i.p. acetic acid 0.7% 10 mL/kg; mean ± S.E.
parameter: No. of writhes/20 min

CC(=NNc1cc(C)nc2nc(C)ccc12)c1ccc(N2CCNCC2)cc1    26.2 ± 1.32 writhes/20 min
CC(=NNc1cc(C)nc2nc(C)ccc12)c1ccc(N2CCOCC2)cc1    29.2 ± 2.50 writhes/20 min
Cc1ccc2c(NN=Cc3ccc(N4CCN(C)CC4)cc3)cc(C)nc2n1    44.8 ± 2.85 writhes/20 min
Cc1ccc2c(NN=Cc3ccc(N4CCOCC4)cc3)cc(C)nc2n1    24.8 ± 1.02 writhes/20 min
Cc1ccc2c(NN=Cc3ccc(N4CCNCC4)cc3)cc(C)nc2n1    39.6 ± 3.14 writhes/20 min
CC(=NNc1cc(C)nc2nc(C)ccc12)c1ccc(N2CCCCC2)cc1    23.6 ± 2.16 writhes/20 min
Cc1ccc2c(NN=Cc3ccc(N4CCCCC4)cc3)cc(C)nc2n1    36.2 ± 2.58 writhes/20 min
